TEST PROTOCOL: in vitro
RUN PARAMETERS: human, MT4 cells
Description: Selectivity index, ratio of CC50 for cytotoxicity against human MT4 cells to EC50 for antiviral activity against NNRTI-resistant HIV-1 harboring F227L and V106A mutant infected in human MT4 cells
# Lookup of reported selectivity ratio keyed by entry
VALUE TYPE: selectivity ratio

chemical_smiles=Cc1cc(C#N)cc(C)c1Oc1nc(Nc2ccc(C#N)cc2)nc2c1CN(Cc1ccc(S(N)(=O)=O)cc1)CC2 recorded_value="> 1640"
chemical_smiles=Cc1ccc(C(=O)N2CCc3nc(Nc4ccc(C#N)cc4)nc(Oc4c(C)cc(C#N)cc4C)c3C2)cc1 recorded_value="> 774"
chemical_smiles=Cc1cc(C#N)cc(C)c1Oc1nc(Nc2ccc(C#N)cc2)nc2c1CN(Cc1ccc(S(C)(=O)=O)cc1)CC2 recorded_value="> 944"
chemical_smiles=Cc1cc(C#N)cc(C)c1Oc1nc(Nc2ccc(C#N)cc2)nc2c1CN(C(=O)c1ccc([N+](=O)[O-])cc1)CC2 recorded_value="> 848"

Data credit: ChEMBL document CHEMBL5331107
